Value source: paper PMC6060094

- Subject of test: PfCCT(528–795) (Plasmodium falciparum, UniProt P49587, DEL194-211)
- Construct: previously described PfCCT(528–795) lacking the lysine-rich Plasmodium specific loop (720–737); His-tag; made in house
- Protocol description: Equilibrium ligand binding by isothermal titration calorimetry (ITC)
- Cond: 20 °C, pH 7.5, read-out: Kd,CDP-Cho
Result type: pKd
A value of pKd is the negative decimal logarithm of a concentration given in moles per litre.

Query string: Entry C[N+](C)(C)CCOP(=O)(O)OP(=O)([O-])OC[C@H]1O[C@@H](n2ccc(N)nc2=O)[C@H](O)[C@@H]1O has what pKd?
Result string: 4.47

###

- Subject of test: PfCCT(528–795) T762A
- Protocol description: Equilibrium ligand binding by isothermal titration calorimetry (ITC)
- Cond: 20 °C, pH 7.5, read-out: Kd,CTP
Result type: Kd (µM)
Form entry: value (µM) — number only.

Query string: Please give the measured Kd for this molecule: Nc1ccn([C@@H]2O[C@H](COP(=O)(O)OP(=O)(O)OP(=O)(O)O)[C@@H](O)[C@H]2O)c(=O)n1
Result string: 170

###

- Subject of test: PfCCT(528–795) K663A (Plasmodium falciparum, UniProt Q8IEE9, DEL720-737/K663A)
- Sequence (Q8IEE9 528-795, stated change not applied): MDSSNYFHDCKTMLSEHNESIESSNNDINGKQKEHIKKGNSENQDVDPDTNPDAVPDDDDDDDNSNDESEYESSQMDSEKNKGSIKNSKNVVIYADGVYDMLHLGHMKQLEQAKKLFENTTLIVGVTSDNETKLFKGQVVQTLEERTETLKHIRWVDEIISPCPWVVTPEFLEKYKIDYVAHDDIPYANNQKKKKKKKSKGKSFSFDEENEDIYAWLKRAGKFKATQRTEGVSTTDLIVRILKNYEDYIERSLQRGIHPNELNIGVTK
- Protocol description: Equilibrium ligand binding by isothermal titration calorimetry (ITC)
- Cond: 20 °C, pH 7.5, N fixed to 1 (low c value protocol), read-out: Kd,CTP
Result type: pKd
Remember the convention: pKd equals -log10 of concentration in molar.

Query string: Param readout = pKd; param system = PfCCT(528–795) K663A (Plasmodium falciparum, UniProt Q8IEE9, DEL720-737/K663A); param query = Nc1ccn([C@@H]2O[C@H](COP(=O)(O)OP(=O)(O)OP(=O)(O)O)[C@@H](O)[C@H]2O)c(=O)n1 ; response: value
Result string: 3.28
